biological target: human PCSK9 (proprotein convertase subtilisin kexin type 9) (human, UniProt Q8NBP7 31-692); test: cell-based or functional assay
Sequence (Q8NBP7 31-692 limits assumed): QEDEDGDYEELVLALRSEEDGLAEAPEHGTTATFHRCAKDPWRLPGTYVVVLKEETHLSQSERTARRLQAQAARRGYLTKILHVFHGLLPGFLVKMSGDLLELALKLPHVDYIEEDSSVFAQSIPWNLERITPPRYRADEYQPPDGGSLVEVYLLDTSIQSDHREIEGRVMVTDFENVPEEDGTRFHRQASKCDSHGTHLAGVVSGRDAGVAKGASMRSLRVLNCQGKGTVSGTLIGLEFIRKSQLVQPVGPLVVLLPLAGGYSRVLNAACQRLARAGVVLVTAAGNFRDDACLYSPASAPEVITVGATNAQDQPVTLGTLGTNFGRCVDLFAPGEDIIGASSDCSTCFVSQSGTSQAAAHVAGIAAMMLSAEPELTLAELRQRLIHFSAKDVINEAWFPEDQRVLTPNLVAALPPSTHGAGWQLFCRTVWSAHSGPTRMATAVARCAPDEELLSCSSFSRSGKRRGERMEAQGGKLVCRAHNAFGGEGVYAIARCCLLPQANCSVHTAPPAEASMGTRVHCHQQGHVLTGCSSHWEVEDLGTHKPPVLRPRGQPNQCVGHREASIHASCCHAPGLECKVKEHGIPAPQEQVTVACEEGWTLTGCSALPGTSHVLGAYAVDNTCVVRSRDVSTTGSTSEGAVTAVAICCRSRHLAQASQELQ
metric: LDLR Depletion (% inhibition at 75 nM) (%)

(I) 2381H01 (designed binder) MGVSDVPRDLEVVAATPTSLLISWSPRDSTGLVRRGYYRITYGETGGNSPVQQFTVPGSKGTATISGLKPGVDYTITVYAVEYPYDHSGYYHRPISINYRTEIDKPSQHHHHHH
(II) 1459D05 (designed binder, also called ATI000891; ATI-891) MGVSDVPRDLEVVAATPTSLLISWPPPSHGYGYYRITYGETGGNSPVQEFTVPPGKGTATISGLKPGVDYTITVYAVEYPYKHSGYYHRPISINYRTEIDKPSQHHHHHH
Which value of LDLR Depletion (% inhibition at 75 nM) is greater, the one for I or the one for II ? API: response body contains the label of the selected item. II
